Measured EC50 of individual entries
- System: H4
- test method notes: Luminescence Cell-Based Dose Response HTS to Identify Activators of 5'UTR Stem-Loop Driven Prion Protein mRNA Translation in H4 Neuroglioblastoma Cells. [Related pubchem assays: 1829 (Project Summary), 1814 (Primary HTS)]
- Format: functional
- measurement parameters: Homo sapiens
The source made the active and inactive calls.

Reference set (4 entries):
COC(=O)c1ccc(-n2cnc3ccccc32)nc1 :: > 120 µM (not active)
O=Nc1c2[nH]c3ccccc3[n+]([O-])c-2c2ccccc12 :: 12.5 µM (inconclusive)
Cc1cnn(-c2cc(Oc3ccccc3)ncn2)c1 :: 11 µM (active)
Brc1ccc2oc3c(N4CCOCC4)ncnc3c2c1 :: 14.7 µM (active)

Attention now shifts to the item below.
Enquiry: Return reported EC50. Input compound: `COC(=O)c1ccc(CO/N=C2\CCCc3nonc32)cc1`
Return: 12.9 µM (active)

====

- study system: Genome polyprotein (dengue virus type 2)
- test method notes: Dengue-2 NS5 methyltransferase inhibitors, primary screen, biochemical, confirmation dose response (AID 588689)
- Assay type: functional
Active and inactive are the calls of the source.
Measured IC50 of individual entries

C=CCN1C(=O)/C(=C/c2cccs2)C(=O)NC1=S :: 43.8 µM (active)
Cc1[nH]n(-c2ccccc2)c(=O)c1C(c1ccc(C(=O)O)cc1)c1c(C)[nH]n(-c2ccccc2)c1=O :: 20.9 µM (active)
O=[N+]([O-])c1cc2ccccc2c(O)c1O :: 7.79 µM (active)

Enquiry: Name the recorded IC50 of `O=[N+]([O-])c1cc2no[n+]([O-])c2cc1N1CCCCC1` , assay system Genome polyprotein (dengue virus type 2).
Return: 6.38 µM (active)

Enquiry: Name the recorded IC50 of `Cc1nn(-c2cccc(Cl)c2)c2nc(-c3ccco3)cc(C(=O)O)c12` , assay system Genome polyprotein (dengue virus type 2).
Return: > 100 µM (active)

Enquiry: Name the recorded IC50 of `CC(=O)N(C1=C(Cl)C(=O)c2ccccc2C1=O)C1CCCCC1` , assay system Genome polyprotein (dengue virus type 2).
Return: 38.3 µM (active)

Enquiry: Name the recorded IC50 of Cc1[nH]n(-c2ncc(-c3ccccc3)s2)c(=O)c1C(c1ccc(Cl)cc1)C(C#N)C#N (stereo unspecified) , assay system Genome polyprotein (dengue virus type 2).
Return: 31.9 µM (active)

Enquiry: Name the recorded IC50 of `CCc1ccc([C@@H]2CC=C(C(=O)O)[C@H](c3ccc(C)cc3)N2S(=O)(=O)c2ccc(C)cc2)cc1` , assay system Genome polyprotein (dengue virus type 2).
Return: 41.2 µM (active)

Enquiry: Name the recorded IC50 of `COc1cc(/C=C2\C(=O)N(c3ccccc3)N=C2C)ccc1Oc1ccc([N+](=O)[O-])cc1[N+](=O)[O-]` , assay system Genome polyprotein (dengue virus type 2).
Return: 58 µM (active)

Enquiry: Name the recorded IC50 of `Cc1cc(O)c(C(C)C)cc1N=Cc1ccc(N(C)C)cc1` , assay system Genome polyprotein (dengue virus type 2).
Return: > 100 µM (active)

Enquiry: Name the recorded IC50 of `CC(C)(C)OC(=O)N1CC=C2C(C#N)=C(N)C(C#N)(C#N)[C@H](c3cccnc3)[C@H]2C1` , assay system Genome polyprotein (dengue virus type 2).
Return: > 100 µM (active)

====

Measured IC50 of individual entries
- study system: Coagulation factor XII (Homo sapiens, UniProt P00748);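 also: activated factor XIIa alpha cleaving a fluorogenic AMC peptide substrate; inhibitor potency from loss of enzyme activity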
- Sequence (P00748 whole entry): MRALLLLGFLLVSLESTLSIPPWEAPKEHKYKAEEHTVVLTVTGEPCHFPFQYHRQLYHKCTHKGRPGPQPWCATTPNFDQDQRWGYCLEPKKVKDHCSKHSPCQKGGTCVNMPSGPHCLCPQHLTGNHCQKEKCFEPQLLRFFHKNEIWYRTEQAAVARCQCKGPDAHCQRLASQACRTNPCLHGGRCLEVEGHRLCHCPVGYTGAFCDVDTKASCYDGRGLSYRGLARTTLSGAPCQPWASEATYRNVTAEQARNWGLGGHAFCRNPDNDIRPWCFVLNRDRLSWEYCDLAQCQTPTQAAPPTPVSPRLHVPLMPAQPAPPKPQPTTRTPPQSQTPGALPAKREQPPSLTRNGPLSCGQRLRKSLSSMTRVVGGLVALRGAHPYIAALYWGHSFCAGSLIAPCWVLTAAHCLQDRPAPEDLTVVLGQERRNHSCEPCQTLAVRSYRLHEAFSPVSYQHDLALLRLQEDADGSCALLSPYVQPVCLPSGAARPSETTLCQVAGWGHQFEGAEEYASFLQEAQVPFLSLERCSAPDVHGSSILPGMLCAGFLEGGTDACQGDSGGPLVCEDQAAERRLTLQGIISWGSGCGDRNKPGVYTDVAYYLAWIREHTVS
- Assay type: functional
Activity calls are given as the source filed them.

O=C(CN1CCN(c2ccccn2)CC1)Nc1ccc(Oc2ccccc2)cc1 :: > 50 µM (inactive)
O=C(COC(=O)c1ccc(O)cc1)NCCCc1ccccc1 :: > 50 µM (inactive)
N=C(NOC(=O)c1ccc(Cl)c([N+](=O)[O-])c1)c1ccccn1 :: > 50 µM (inactive)
COc1ccc(S(=O)(=O)N2CCCC2C(=O)Nn2cnnc2)cc1 (stereo not given) :: > 50 µM (inactive)

Enquiry: Name the recorded IC50 of `CCOC(=O)/C(C#N)=C/N=c1/ccc(C)cn1C` , assay system Coagulation factor XII (Homo sapiens, UniProt P00748).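 Also: activated factor XIIa alpha cleaving a fluorogenic AMC peptide substrate; inhibitor potency from loss of enzyme activity.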
Return: > 50 µM (inconclusive)

====

Measured IC50 of individual entries
- study system: Leucine aminopeptidase (Plasmodium falciparum 3D7, UniProt Q8IL11)
- Sequence (Q8IL11 whole entry): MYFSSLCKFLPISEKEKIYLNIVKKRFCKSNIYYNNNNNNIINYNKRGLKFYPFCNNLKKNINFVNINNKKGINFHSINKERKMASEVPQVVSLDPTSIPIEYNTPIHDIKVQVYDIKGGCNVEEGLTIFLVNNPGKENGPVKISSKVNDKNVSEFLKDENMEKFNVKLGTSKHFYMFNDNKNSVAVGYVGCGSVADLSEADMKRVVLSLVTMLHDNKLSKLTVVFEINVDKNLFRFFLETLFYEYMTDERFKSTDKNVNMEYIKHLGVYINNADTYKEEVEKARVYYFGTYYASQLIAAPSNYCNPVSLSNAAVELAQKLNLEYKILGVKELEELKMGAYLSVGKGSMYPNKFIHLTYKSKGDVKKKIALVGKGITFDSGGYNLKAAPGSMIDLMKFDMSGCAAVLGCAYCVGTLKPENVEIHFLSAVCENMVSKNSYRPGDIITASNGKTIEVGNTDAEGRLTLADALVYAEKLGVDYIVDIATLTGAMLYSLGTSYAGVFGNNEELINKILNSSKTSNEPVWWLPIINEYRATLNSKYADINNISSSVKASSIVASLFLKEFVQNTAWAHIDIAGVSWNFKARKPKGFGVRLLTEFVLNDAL
- test method notes: P. falciparum M17LAP inhibitors, primary screen, biochemical, fluorogenic H-Leu-NHMec substrate, 1536-well (AID 1619)
- Type: functional
Activity calls are given as the source filed them.

O=C(CSc1nnc(O)nc1O)N/N=C/c1ccccc1 :: 21.1 µM (active)
COc1ccc(NC(=O)C(CC(=O)O)Cc2ccccc2)cc1 (stereo not drawn) :: 28.1 µM (active)
O=C1C2CC=C(Cl)CC2C(=O)N1CCCCCCN1C(=O)C2CC=C(Cl)CC2C1=O (stereo not drawn) :: 37.2 µM (active)

Enquiry: Return reported IC50. Input compound: `COc1ccc(OC)c(S(=O)(=O)n2nnc3cc(Cl)ccc32)c1`
Return: 103 µM (active)

Enquiry: Return reported IC50. Input compound: Cc1ccc(-c2[nH]nc3c2C(c2ccsc2)C(C#N)=C(N)O3)cc1 (stereo not drawn)
Return: 11.3 µM (active)

Enquiry: Return reported IC50. Input compound: O=C(O)C1CC=CCC1C(=O)Nc1ccccc1 (stereo not drawn)
Return: 29 µM (active)

Enquiry: Return reported IC50. Input compound: `CCc1nnc(NS(=O)(=O)c2ccc(/N=C/c3c(C)[nH]n(-c4cccc(Cl)c4)c3=O)cc2)s1`
Return: 11.3 µM (active)

Enquiry: Return reported IC50. Input compound: `CC(/C=C1\SC(=O)N(CCCC(=O)O)C1=O)=C\c1ccccc1`
Return: 15.8 µM (active)

====

Measured IC50 of individual entries
- study system: Ubiquitin-conjugating enzyme E2 N (Homo sapiens);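 also: Dose-response confirmation in a TR-FRET assay detecting UBC13-driven polyubiquitin chain formation, inhibition measured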
- Sequence (P61088 whole entry): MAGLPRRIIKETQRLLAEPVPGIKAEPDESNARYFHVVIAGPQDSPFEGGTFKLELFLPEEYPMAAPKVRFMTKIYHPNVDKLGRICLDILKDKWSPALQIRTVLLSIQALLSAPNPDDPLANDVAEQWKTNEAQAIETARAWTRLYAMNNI
- Type: functional
Calls of active or inactive are those of the source.

Reference set (2 entries):
C#CCOCCOCCOCCNc1nc(N2CCN(C(=O)[C@H]([C@@H](C)CC)n3cc([C@@H](N)CC(C)C)nn3)CC2)nc(N2CCN(C(=O)[C@H](Cc3ccc(O)cc3)n3cc([C@@H](N)C(C)CC)nn3)CC2)n1 (stereo partly drawn) :: > 20 µM (inactive)
Cc1cccc(OCc2n(C)c3ccccc3[n+]2CC(=O)OC2CC(C)CCC2C(C)C)c1 (stereo not drawn) :: > 20 µM (inactive)

Attention now shifts to the item below.
Enquiry: Return reported IC50. Input molecule: `COc1cc2nc(=S)[nH]c(Nc3ccc(NC(C)=O)cc3)c2cc1OC`
Return: > 20 µM (inactive)
